Consider the following compounds; for each one, report its IC50.
Biological target: human Nav 1.8 (Homo sapiens, UniProt Q9Y5Y9)
Sequence (Q9Y5Y9 whole entry, looked up, the tested form may be a part): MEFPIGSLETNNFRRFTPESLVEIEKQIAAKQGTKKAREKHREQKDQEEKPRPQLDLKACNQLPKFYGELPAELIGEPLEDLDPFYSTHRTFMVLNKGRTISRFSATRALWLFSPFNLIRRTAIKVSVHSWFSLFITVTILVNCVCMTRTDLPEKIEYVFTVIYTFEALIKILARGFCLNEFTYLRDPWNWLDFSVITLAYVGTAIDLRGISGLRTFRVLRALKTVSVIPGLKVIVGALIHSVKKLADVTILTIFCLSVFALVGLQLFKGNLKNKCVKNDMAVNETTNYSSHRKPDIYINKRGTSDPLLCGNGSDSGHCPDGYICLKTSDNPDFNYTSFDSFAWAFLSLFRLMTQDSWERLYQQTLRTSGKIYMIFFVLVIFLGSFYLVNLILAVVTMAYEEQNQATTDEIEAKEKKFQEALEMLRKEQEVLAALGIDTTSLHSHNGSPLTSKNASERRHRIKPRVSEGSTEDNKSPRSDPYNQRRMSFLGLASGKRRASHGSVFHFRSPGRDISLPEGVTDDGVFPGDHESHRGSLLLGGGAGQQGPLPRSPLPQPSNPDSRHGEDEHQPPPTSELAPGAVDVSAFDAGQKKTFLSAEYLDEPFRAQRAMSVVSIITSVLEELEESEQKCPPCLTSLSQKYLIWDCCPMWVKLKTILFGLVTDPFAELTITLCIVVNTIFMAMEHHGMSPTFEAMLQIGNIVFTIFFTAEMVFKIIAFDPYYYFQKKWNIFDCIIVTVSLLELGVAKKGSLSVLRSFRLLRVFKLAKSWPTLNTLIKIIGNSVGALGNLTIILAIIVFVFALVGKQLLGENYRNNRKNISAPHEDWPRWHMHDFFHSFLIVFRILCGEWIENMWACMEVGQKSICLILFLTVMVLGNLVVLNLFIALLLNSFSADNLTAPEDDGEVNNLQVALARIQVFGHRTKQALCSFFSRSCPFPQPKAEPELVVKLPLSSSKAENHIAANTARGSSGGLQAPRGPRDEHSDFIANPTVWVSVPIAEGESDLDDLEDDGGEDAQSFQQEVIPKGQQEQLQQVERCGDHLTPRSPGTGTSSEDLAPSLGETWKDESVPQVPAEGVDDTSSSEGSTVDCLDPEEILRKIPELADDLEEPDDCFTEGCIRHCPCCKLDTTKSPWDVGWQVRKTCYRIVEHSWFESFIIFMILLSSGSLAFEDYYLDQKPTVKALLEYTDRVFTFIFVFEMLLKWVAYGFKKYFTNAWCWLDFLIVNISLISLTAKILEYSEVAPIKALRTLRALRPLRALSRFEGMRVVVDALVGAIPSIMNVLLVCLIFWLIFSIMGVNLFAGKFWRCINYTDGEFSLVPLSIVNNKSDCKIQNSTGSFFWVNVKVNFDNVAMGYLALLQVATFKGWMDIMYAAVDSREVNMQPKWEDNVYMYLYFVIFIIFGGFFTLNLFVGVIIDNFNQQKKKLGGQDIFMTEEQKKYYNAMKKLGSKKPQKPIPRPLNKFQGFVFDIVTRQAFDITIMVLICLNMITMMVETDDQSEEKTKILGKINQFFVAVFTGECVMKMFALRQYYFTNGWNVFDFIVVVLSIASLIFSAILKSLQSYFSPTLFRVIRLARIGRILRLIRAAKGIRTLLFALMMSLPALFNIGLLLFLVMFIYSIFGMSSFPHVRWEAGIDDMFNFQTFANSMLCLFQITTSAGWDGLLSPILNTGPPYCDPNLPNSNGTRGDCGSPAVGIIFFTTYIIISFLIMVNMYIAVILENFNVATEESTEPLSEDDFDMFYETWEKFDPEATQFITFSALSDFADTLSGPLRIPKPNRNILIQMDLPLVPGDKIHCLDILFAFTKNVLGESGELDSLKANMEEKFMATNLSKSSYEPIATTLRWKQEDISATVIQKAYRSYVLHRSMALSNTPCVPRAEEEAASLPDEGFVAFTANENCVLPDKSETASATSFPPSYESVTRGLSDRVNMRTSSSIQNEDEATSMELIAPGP
Test: E-VIPR assay detecting and measuring Nav inhibition (HEK cells expressing truncated human Nav 1.8)
Type: cell-based
Conditions: in the Presence of Human Serum in the E-VIPR Assay; read-out: IC50

// worked examples, IC50 included
[[record]]
compound = "COc1cc(F)ccc1[C@@H]1[C@@H](C(=O)Nc2ccnc(C(N)=O)c2)O[C@@](C)(C(F)(F)F)[C@H]1C (single isomer, unassigned)"
study_system = "human Nav 1.8 (Homo sapiens, UniProt Q9Y5Y9)"
observed = "100 to 1000 nM"

[[record]]
compound = "COc1c([C@@H]2[C@@H](C(=O)Nc3ccnc(C(N)=O)c3)OC(C)(C)[C@@H]2C)ccc(F)c1F (single isomer, unassigned)"
study_system = "human Nav 1.8 (Homo sapiens, UniProt Q9Y5Y9)"
observed = "> 1000 nM"


Looking up COc1cc(F)ccc1[C@H]1C[C@@](C)(C(F)(F)F)O[C@H]1C(=O)Nc1ccnc(C(N)=O)c1 (single isomer, unassigned) , I see its IC50 listed as > 1000 nM
